meta.source: ChEMBL document CHEMBL3044874

# Tested on: Mus musculus
# method.notes: Anticonvulsant activity in ip dosed Mus musculus Swiss albino (mouse) assessed as protection against strychnine-induced seizure at 0.5 hr
# Assay type: functional
# protocol.conditions: read-out: MED
readout.label: minimal effective dose (mg/kg)

                                   molecule           readout_label  recorded_number
0              C/C(=N\Cc1cccnc1)c1cccc(N)c1  minimal effective dose               30
1          C(=N\Cc1cccnc1)/c1c[nH]c2ccccc12  minimal effective dose              300
2               COc1cc(/C=N/Cc2cccnc2)ccc1O  minimal effective dose               30
3      O=[N+]([O-])c1ccc(/C=N/Cc2cccnc2)cc1  minimal effective dose               30
4  OC(/C(=N\Cc1cccnc1)c1ccccc1)c1ccccc1 (configuration not stated)  minimal effective dose              100
5                  Clc1ccccc1/C=N/Cc1cccnc1  minimal effective dose              100
6                Clc1ccc(/C=N/Cc2cccnc2)cc1  minimal effective dose              100
